Biological target: T1, human GPVI extracellular region-human Fc fusion protein (hGPVI-hFc) (human)
T1 construct: Expressed in COS-1, purified on Protein A; also called GPVI-HHH-hFc; hGPVIHHH-hFc
T1 sequence (chain, as listed by the source limits assumed): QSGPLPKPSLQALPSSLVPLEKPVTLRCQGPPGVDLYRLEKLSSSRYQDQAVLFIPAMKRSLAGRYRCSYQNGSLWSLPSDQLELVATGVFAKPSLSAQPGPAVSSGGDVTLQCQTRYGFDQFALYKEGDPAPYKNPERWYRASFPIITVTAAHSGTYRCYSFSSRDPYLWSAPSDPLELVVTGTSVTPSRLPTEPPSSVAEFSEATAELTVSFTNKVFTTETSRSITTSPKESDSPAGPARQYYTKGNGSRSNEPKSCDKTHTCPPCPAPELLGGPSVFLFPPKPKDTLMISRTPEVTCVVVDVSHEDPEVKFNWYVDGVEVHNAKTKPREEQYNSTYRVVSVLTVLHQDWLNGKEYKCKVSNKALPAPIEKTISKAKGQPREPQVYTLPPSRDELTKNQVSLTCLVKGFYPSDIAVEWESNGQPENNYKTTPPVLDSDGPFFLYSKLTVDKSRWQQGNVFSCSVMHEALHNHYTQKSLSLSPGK
Test: competition ELISA on hGPVI-hFc plate; competitor: peroxidase-labelled F1232-37-2; +++ more than 50%, ++ 30-50%, + 10-30% inhibition
Endpoint: percent inhibition

{"Binder": "F1249-30-1 (antibody, V domains shown) VH: QVQLQQSGAELVRPGVSVKISCKGSGYTFTDYAMHWVKQSHAKSLEWIGVISTYYGDTSYNQKFKGKAAMTVDKSSSTAYMELARLTSDDSAIYYCARAEDYDPWFAYWGQGTLVTVSA VL: DIVLTQSPASLAVSLGQRATISCRASESVDSYGNSFMHWYQQKPGQPPKLLIYRASNLESGIPARFSGSGSRTDFTLTINPVEADDVATYYCQQSDEDPLTFGAGTKLELKR", "Endpoint Result": "> 50%"}

Prompt: Give reported percent inhibition value for F1245-6-2 (antibody, V domains shown) VH: QVQLQQPGAELVKPGASVKLSCKASGYTFTSYWMHWVKQRPGQGLEWIGMIHPNSGSTNYNEKFKSKATLTVDKSSSTAYMQLSSLTSEDSAVYYCARGGVTPVAYWGQGTLVTVSA VL: SIVMTQTPKFLLVSAGDRVTITCKASQSVSNDVAWYQQKPGQSPKLLIYYASNRYTGVPYRFTGSGYGTDFTFTISTVQAEDLAVYFCQQDYSSPWTFGGGTKLEIKR
Response: > 50%

Prompt: Give reported percent inhibition value for F1249-24-1 (antibody, V domains shown) VH: QVQLQQSGAELVRPGVSVKISCKGSGYTFTDYAMHWVKQSHAKSLEWIGVISTYYGDTSYNQKFKGKATMTVDKSSSTAYMELARLTSEDSAIYYCARAEDYDPWFAYWGQGTLVTVSA VL: DIVLTQSPASLAVSLGQRATISCRASESVDSYGNSFMHWYQQKPGQPPKLLIYRASNLESGIPARFSGSGSRTDFTLTINPVEADDVATYYCQQSDEDPLTFGAGTKLELKR
Response: > 50%

Prompt: Give reported percent inhibition value for F1249-18-2 (antibody, V domains shown) VH: QVQLQQPGAELVKPGASVKLSCKASGYTFTSYWMHWLKQRPGQGLEWIGMIHPNSDITNYNEKFKNKATLTVDKSSSTAYMQLSSLTSEDSAVYYCARSGDYYAMDYWGQGTSVTVSS VL: SIVMTQTPKFLLVSAGDRVTITCKASQSVSNDVAWYQQKPGQSPKLLIYYASNRYTGVPDRFTGSGYGTDFTFTISTVQAEDLAVYFCQQDYSSPPTFGGGTKLEIKR
Response: 30 to 50%

Prompt: Give reported percent inhibition value for F1249-3-2 (antibody, V domains shown) VH: EVQLVESGGGLVKPGGSLKLSCAASGFTFSSYGMSWVRQTPDKRLEWVATISSGGSYTYYSDSVKGRFTISRDNAKNNLYLQLSSLKSQDTAIYYCARDSGYFDYWGQGTTLTVSS VL: NIVLTQSPASLAVSLGQRATISCRASESVDSYGNSFMHWYQQKPGQPPKLLIYLASNLESGVPARFSGSGSRTDFTLTIDPVEADDAATYYCQQNNEDPRTFGGGTKLEIKR
Response: 30 to 50%
